Molecular target: SLC17A2
Assay: pooled miR-30 sensor sort-seq; sequence = guide strand; note: reference of the scale not given here
Settings: shRNA
experimental_readout: sensor-assay potency score (higher = more potent)

# macromolecule_sequence, target_under_test, test_result
records = [
    ("TAAACTGACCTGTCCATGCCAT", "SLC17A2", -0.0582),
    ("ATGAACAGAAATCTGGACCTTT", "SLC17A2", 0.387),
    ("ATTAGATAGACCTTGCTGCTGA", "SLC17A2", 0.973),
    ("TATGTTAGGATGATGGTGCATA", "SLC17A2", -0.486),
    ("TCTGATGTTAACATGGAGCAGA", "SLC17A2", -0.539),
    ("AAATTGTACAGCTTGCAGCAGC", "SLC17A2", -0.887),
    ("TTTCGCACAGTGATCAATCTGA", "SLC17A2", 0.624),
]

###

Biological target: IL16
Experiment: pooled miR-30 sensor sort-seq; sequence = guide strand
Conditions: shRNA
experimental_readout: sensor-assay potency score (higher = more potent)

# macromolecule_sequence, test_result
rows = [
    ("TTGGTCTCGAAGTTCCCGCAGC", -0.85),
    ("TTTGTTCTGAGGCTGCTCCTTT", 0.156),
    ("TTCATGAAGAATATCCTCCTAC", 0.448),
    ("TGATTCACCATTGAGCTCCAGA", -0.0119),
    ("ATCTTCTCCAGTGTCACCGTGC", -0.369),
    ("TAGATCAGGAACACTGCTGGGC", 0.521),
    ("TTTCTCCTGATGACAATCGTGA", -0.801),
    ("TTCCTTGTGACAATCACAGCTT", 0.571),
]

###

Biological target: KRTAP5-8
Assay: pooled miR-30 sensor sort-seq; sequence = guide strand
Conditions: shRNA
experimental_readout: sensor-assay potency score (higher = more potent)

# macromolecule_sequence, test_result
measured = [
    ("ACAGGAGCCACAGTCCCCCTTG", -0.958),
    ("ATGGGCACACAGCAGCTAGAGC", -1.84),
    ("TGAGGAGCAACAGCAGGGCTTA", -1.48),
    ("TGCAGGGCTTACAACAGCTGGA", -1.15),
    ("TTACAACAGCTGGACTGGGAAC", -1.86),
]

###

Biological target: COQ3
Assay: pooled miR-30 sensor sort-seq; sequence = guide strand
Settings: shRNA
Tag: Condition met if measured sensor-assay potency score (higher = more potent) is not below -0.04, Condition not met if it is.

# macromolecule_sequence, group
measured = [
    ("TTAATCTGTAGAGTCCCACTGA", "Condition met"),
    ("TAACACTTGACAGCAGCACTGT", "Condition met"),
    ("TACCTGAAACTCTTTATTCTGT", "Condition not met"),
    ("AAACAGGAAAAGATCGTCCTGT", "Condition met"),
    ("TAGTAATGAATAAAGAACCACC", "Condition not met"),
    ("TATGGTTCTGTATTCATTGAAA", "Condition not met"),
    ("TTAATGTTCTCATCCACAGGGT", "Condition met"),
    ("TTGAAAACATCAGATATCCAAG", "Condition not met"),
]

// provenance: the OligoGym collection
